Origin of values: patent US20210315869A1

Reported IC50 values follow for various compounds
Experimental target: LCK (Homo sapiens)
Construct: purchased ProQinase
Sequence (P06239 whole entry): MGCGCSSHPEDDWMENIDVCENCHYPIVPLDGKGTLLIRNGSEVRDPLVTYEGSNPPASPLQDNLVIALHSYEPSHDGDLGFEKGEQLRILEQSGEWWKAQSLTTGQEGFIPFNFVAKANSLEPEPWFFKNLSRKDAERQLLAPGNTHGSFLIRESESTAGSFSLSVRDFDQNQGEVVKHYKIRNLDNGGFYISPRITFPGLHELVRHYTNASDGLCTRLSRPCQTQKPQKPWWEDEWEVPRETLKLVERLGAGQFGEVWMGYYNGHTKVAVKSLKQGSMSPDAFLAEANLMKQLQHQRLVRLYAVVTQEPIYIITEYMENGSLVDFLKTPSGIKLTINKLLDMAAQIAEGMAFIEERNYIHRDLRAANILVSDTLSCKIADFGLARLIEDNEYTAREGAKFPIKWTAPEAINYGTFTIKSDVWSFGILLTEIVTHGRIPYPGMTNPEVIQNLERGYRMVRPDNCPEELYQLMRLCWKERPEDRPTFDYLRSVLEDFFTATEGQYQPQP
Assay method text: Human LCK enzymatic assay (AlphaScreen, Poly (Glu4-Tyr) substrate)
Type: biochemical
Measurement parameters: 100 uM ATP; read-out: LCK IC50 (uM) COFACTOR: 100 uM ATP

In the examples that follow, each entry is paired with its recorded IC50.
| Smiles representation | Measured metric | Test value |
| --- | --- | --- |
| O=c1c(-c2c(F)ccc(NS(=O)(=O)c3cc4scnc4cc3F)c2F)cc2cnc(NCCO)cc2n1CC1CC1 | IC50 | 5 to 100 µM |
| Nc1cc2c(cn1)cc(-c1c(F)ccc(NS(=O)(=O)c3cc4scnc4cc3F)c1F)c(=O)n2C1CC(F)(F)C1 | IC50 | 5 to 100 µM |
| CC(F)(F)Cn1c(=O)c(-c2c(F)ccc(NS(=O)(=O)c3ccc4ncsc4c3F)c2F)cc2cnc(N)cc21 | IC50 | 0.5 to 5 µM |

Would you mind telling me what IC50 value was observed for Cc1c(-c2cccc(NS(=O)(=O)c3cc4scnc4cc3F)c2F)c(=O)n(C2CC2)c2cc(N)ncc12 ?
5 to 100 µM

Which IC50 reading was recorded for the compound Nc1cc2c(cn1)cc(-c1c(F)ccc(NS(=O)(=O)c3ccc4ncsc4c3)c1F)c(=O)n2C1CC1 ?
5 to 100 µM

If you can, please state the reported IC50 value of COCCn1c(=O)c(-c2c(F)ccc(NS(=O)(=O)c3cc4scnc4cc3F)c2F)cc2cnc(N)cc21 .
5 to 100 µM

Name the reported IC50 value associated with the compound CC(F)(F)Cn1c(=O)c(-c2c(F)ccc(NS(=O)(=O)c3cc4scnc4cc3F)c2F)cc2cnc(N)cc21
5 to 100 µM

Please look up its IC50: O=c1c(-c2c(F)ccc(NS(=O)(=O)c3cc4scnc4cc3F)c2F)cc2cnc(Nc3ccn(C(F)F)n3)cc2n1C1CC1
0.5 to 5 µM

Endpoint output: IC50 of Nc1cc2c(cn1)cc(-c1c(F)ccc(NS(=O)(=O)c3cc4scnc4cc3F)c1F)c(=O)n2CC1CC(F)(F)C1 . Value?
5 to 100 µM

Item under review: Nc1cc2c(cn1)cc(-c1c(F)ccc(NS(=O)(=O)c3cc4scnc4cc3F)c1F)c(=O)n2C1CCC1 . Reported IC50?
5 to 100 µM

For Nc1cc2c(cn1)cc(-c1c(F)ccc(NS(=O)(=O)c3cc4scnc4cc3F)c1F)c(=O)n2C1CC1 , what is its reported IC50?
5 to 100 µM

If you can, please state the reported IC50 value of Nc1cc2c(cn1)cc(-c1c(F)ccc(NS(=O)(=O)c3ccc4ncsc4c3F)c1F)c(=O)n2CC1CC1 .
0.001 to 0.5 µM

GET /values?readout=IC50&item= O=c1c(-c2c(F)ccc(NS(=O)(=O)c3cc4scnc4cc3F)c2F)cc2cnc(Nc3ccn(C(F)F)n3)cc2n1C1CC(F)(F)C1
0.5 to 5 µM
